# Study Target: T1, human DR3 (TNFRSF25) expressed on cells (human, UniProt Q93038 25-417)
# T1 sequence: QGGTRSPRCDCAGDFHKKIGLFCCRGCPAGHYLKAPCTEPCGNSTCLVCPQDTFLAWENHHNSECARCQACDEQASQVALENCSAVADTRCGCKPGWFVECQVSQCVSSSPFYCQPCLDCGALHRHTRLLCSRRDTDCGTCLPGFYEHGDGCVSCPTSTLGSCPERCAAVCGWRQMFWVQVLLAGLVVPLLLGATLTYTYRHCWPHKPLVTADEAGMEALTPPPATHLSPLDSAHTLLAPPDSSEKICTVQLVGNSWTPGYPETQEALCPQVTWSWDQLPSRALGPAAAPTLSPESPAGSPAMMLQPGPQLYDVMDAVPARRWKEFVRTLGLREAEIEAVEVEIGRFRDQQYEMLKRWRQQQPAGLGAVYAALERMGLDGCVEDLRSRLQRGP
# Method: cell-based or functional assay
Measurement Name: EC50 (pM), DR3 Jurkat reporter

Consider the following illustrative entries.
[
  {
    "Binder": "VHg3/VLg13 (antibody, human IgG1, V domains shown, human IgG1) VH: EVQLVQSGGGLVKPGGSLRLSCAASGFKFSSYAMSWVRQAPGKGLEWLSTISDGDSYSYFPDSVKDRFIISRDNAKNSLYLQMNSLRVEDTGVYYCARDRIYGSVQYYAMDYWGQGTLVTVSS VL: DIQMTQSPSSLSASVGDRVTITCRASESVEFSGTSLMQWYQQKPGKAPKLLIYAASNVESGVPSRFSGSGSGTDFTFTISSLQPEDIATYYCQQSRKLPYTFGQGTKLEIK",
    "Measurement Name": "EC50 (pM), DR3 Jurkat reporter",
    "Result": "1770 pM"
  },
  {
    "Binder": "VHg1/VLg2 (antibody, human IgG1, V domains shown, human IgG1) VH: QVQLVQSGGGLVQPGGSLRLSCAASGFTFSSYAMSWVRQAPGKGLEWVSTISDGDSYSYFPDSVKDRFTISRDNSKNTLYLQMNSLRAEDTSVYYCARDRIYGSVQYYAMDYWGQGTLVTVSS VL: DIQLTQSPSSLSASVGDRVTITCRASESVEFSGTSLMQWYQQKAGLAPKLLIYAASNVESGVPSRFSGSGSGTDFTLTISSLQPEDFGTYYCQQSRKLPYTFGQGTRLEIK",
    "Measurement Name": "EC50 (pM), DR3 Jurkat reporter",
    "Result": "336 pM"
  },
  {
    "Binder": "VHg6/VLg13 (antibody, human IgG1, V domains shown, human IgG1) VH: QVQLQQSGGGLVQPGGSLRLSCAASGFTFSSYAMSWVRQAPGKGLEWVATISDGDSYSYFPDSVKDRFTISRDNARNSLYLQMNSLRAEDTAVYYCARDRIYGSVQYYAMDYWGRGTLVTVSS VL: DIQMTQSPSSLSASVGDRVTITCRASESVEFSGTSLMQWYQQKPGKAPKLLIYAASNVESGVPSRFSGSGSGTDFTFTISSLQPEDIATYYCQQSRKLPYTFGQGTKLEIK",
    "Measurement Name": "EC50 (pM), DR3 Jurkat reporter",
    "Result": "141 pM"
  },
  {
    "Binder": "VHg10/VLg5 (antibody, human IgG1, V domains shown, human IgG1) VH: EVQLVESGGGLVQPGGSLRLSCAASGFTFSSYAMSWVRQAPGKGLEWVSTISDGDSYSYFPDSVKDRFTISRDNSKNTLYLQMNSLRAEDTAVYYCARDRIYGSVQYYAMDYWGQGTLVTVSS VL: EIVLTQSPGTLSLSPGERGTLSCRASESVEFSGTSLMQWYQQKPGQAPRLLIYAASNVESGIPDRFSGSGSETDFTLTISRLEPEDLAVYYCQQSRKLPYTFGQGTRLEIK",
    "Measurement Name": "EC50 (pM), DR3 Jurkat reporter",
    "Result": "634 pM"
  }
]

Consider now this further binder.
Lookup: Quick one: EC50 (pM), DR3 Jurkat reporter for VHg1/VLg12 (antibody, human IgG1, V domains shown, human IgG1) VH: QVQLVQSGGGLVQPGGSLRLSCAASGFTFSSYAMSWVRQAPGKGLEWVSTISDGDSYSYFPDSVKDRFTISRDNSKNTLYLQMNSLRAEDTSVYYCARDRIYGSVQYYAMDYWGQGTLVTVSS VL: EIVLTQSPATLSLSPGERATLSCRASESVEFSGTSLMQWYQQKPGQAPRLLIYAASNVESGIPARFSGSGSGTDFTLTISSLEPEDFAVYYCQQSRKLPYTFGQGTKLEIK ?
Found: 322 pM
